Tested on: MDA MB 435 (Metastic Human Breast Cancer Cell Line)
Assay: Inhibition of DNA synthesis (3H-TdR uptake) / proliferation, MB-435
Assay type: cell-based
Conditions Used: Homo sapiens, MDA-MB-435; MB-435, 20 μg/mL, 48 h
Experimental: […] Plates were cultured for 48 hours at 37° C., 5% CO2. […] Percent viability and percent suppression of each treatment group were calculated. With respect to the data shown in the Tables below, the data is arranged from greatest percent inhibition of DNA synthesis to lowest. […] The cells were cultured for 48 hours, pulsed 8 hours with tritiated thymidine, harvested and counted. […]
Would you please tag the item Met when its inhibition at 20 µg/mL is 40% or above, and Not met when it is below?

>  <Compound>
CC(=O)N1CC(C)(C)c2c1cc(C)c(O)c2C [Compound 16]

>  <Discrete Label>
Not met

$$$$
>  <Compound>
Cc1cc2c(C)c(O)c(C)c(C)c2o1 [Compound 33, 5-Hydroxy-2,4,6,7-tetramethylbenzofuran]

>  <Discrete Label>
Met

$$$$
>  <Compound>
COc1c(C)cc2c(c1C)C(C)CN2C(=O)C(C)C (centres unmarked) [Compound 13]

>  <Discrete Label>
Met

$$$$
>  <Compound>
Cc1cc2c(c(C)c1O)C(C)CN2C(=O)C(C)(C)C (centres unmarked) [Compound 11c]

>  <Discrete Label>
Not met

$$$$
>  <Compound>
CC(=O)N1CC(C)(C)c2c(C)c(O)c(C)c(C)c21 [Compound 31b]

>  <Discrete Label>
Not met

$$$$
>  <Compound>
Cc1cc2c(c(C)c1O)C(C)CN2C(=O)C(C)C (centres unmarked) [Compound 11b]

>  <Discrete Label>
Not met

$$$$
>  <Compound>
Cc1c(O)c(C)c2c(C)cn(C(=O)C(C)(C)C)c2c1C [Compound 27]

>  <Discrete Label>
Met

$$$$
>  <Compound>
Cc1cc2c(c(C)c1O)C(C)(C)CN2C(=O)C(C)(C)C [Compound 20]

>  <Discrete Label>
Not met

$$$$
>  <Compound>
CC(C)(C)c1cc2c(c(C(C)(C)C)c1O)CC(=O)O2 [Compound 24]

>  <Discrete Label>
Met

$$$$
>  <Compound>
Cc1c(C)c2c(c(C)c1O)CC1(CC1)O2 [Compound 32]

>  <Discrete Label>
Met

$$$$

Numbers sourced from patent US5674876A.
